System: NCI-H322M multicellular tumor spheroids, viability (% test/control)
Test: Anticancer human tumor NCI-H322M cell line growth inhibition;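 further: spheroids exposed to compound for seven days before readout; 100% = DMSO vehicle control wells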
Settings: second compound 10 µM; first compound 0.949 µM; stronger effect = lower value
Value type: viability, T/C (%)
Quick note: give the figure in %, leave out the unit.

In the examples that follow, each entry is paired with its recorded viability, T/C.
INSERT INTO measurements (compound, assayed_system, value_type, reported_value) VALUES
  ('Cc1sc2c(c1C)C(c1ccc(Cl)cc1)=NC(CC(=O)Nc1ccc(O)cc1)c1nnc(C)n1-2 (centres undefined) + Cn1nnc2c(C(N)=O)ncn2c1=O', 'NCI-H322M multicellular tumor spheroids, viability (% test/control)', 'viability, T/C', 90.2),
  ('Cn1ncnc1[C@H]1c2n[nH]c(=O)c3cc(F)cc(c23)N[C@@H]1c1ccc(F)cc1 + Cn1nnc2c(C(N)=O)ncn2c1=O', 'NCI-H322M multicellular tumor spheroids, viability (% test/control)', 'viability, T/C', 77.1);

Record summary for CNCc1ccc(-c2cc(-c3nc(-c4ccc(S(=O)(=O)C(C)C)cc4)cnc3N)on2)cc1 + Cn1nnc2c(C(N)=O)ncn2c1=O : reported viability, T/C = 81.1

// recorded viability, T/C for O=C(c1cc(Cc2n[nH]c(=O)c3ccccc23)ccc1F)N1CCN(C(=O)C2CC2)CC1 + Cn1nnc2c(C(N)=O)ncn2c1=O : 85.7

###

System: NCI-H322M multicellular tumor spheroids, viability (% test/control)
Test: Anticancer human tumor NCI-H322M cell line growth inhibition; active = viability on the fitted dose curve at most 10% of control; inactive = the rest;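 further: spheroids exposed to compound for seven days before readout; 100% = DMSO vehicle control wells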
Settings: second compound 0.003 µM; first compound 0.00949 µM
Would you mind answering with one of these outcomes? active, inactive

INSERT INTO assay_data (molecule, class_assignment) VALUES
  ('Cc1sc2c(c1C)C(c1ccc(Cl)cc1)=NC(CC(=O)Nc1ccc(O)cc1)c1nnc(C)n1-2 (stereo unspecified) + CC[C@@]1(O)C(=O)OCc2c1cc1n(c2=O)Cc2cc3c(CN(C)C)c(O)ccc3nc2-1', 'inactive'),
  ('CNCc1ccc(-c2cc(-c3nc(-c4ccc(S(=O)(=O)C(C)C)cc4)cnc3N)on2)cc1 + COc1cc2c(cc1O)CCNC21CSC2c3c(OC(C)=O)c(C)c4c(c3C(COC1=O)N1C(O)C3Cc5cc(C)c(OC)c(O)c5C(C21)N3C)OCO4', 'inactive'),
  ('CNCc1ccc(-c2cc(-c3nc(-c4ccc(S(=O)(=O)C(C)C)cc4)cnc3N)on2)cc1 + CC[C@@]1(O)C(=O)OCc2c1cc1n(c2=O)Cc2cc3c(CN(C)C)c(O)ccc3nc2-1', 'inactive'),
  ('Cn1ncnc1[C@H]1c2n[nH]c(=O)c3cc(F)cc(c23)N[C@@H]1c1ccc(F)cc1 + CC[C@@]1(O)C(=O)OCc2c1cc1n(c2=O)Cc2cc3c(CN(C)C)c(O)ccc3nc2-1', 'inactive'),
  ('Cc1sc2c(c1C)C(c1ccc(Cl)cc1)=NC(CC(=O)Nc1ccc(O)cc1)c1nnc(C)n1-2 (stereo unspecified) + COc1cc2c(cc1O)CCNC21CSC2c3c(OC(C)=O)c(C)c4c(c3C(COC1=O)N1C(O)C3Cc5cc(C)c(OC)c(O)c5C(C21)N3C)OCO4', 'active');

Now look at this entry.
State the result this test recorded for Cn1ncnc1[C@H]1c2n[nH]c(=O)c3cc(F)cc(c23)N[C@@H]1c1ccc(F)cc1 + COc1cc2c(cc1O)CCNC21CSC2c3c(OC(C)=O)c(C)c4c(c3C(COC1=O)N1C(O)C3Cc5cc(C)c(OC)c(O)c5C(C21)N3C)OCO4 . active
